assay: clinical; conditions: both, human, plasma, 0.6 mg
quantity-name: Cmax (ng/mL)
All answers are understood in ng/mL, so give the number only.

stdin: Fill blank: measured Cmax of the compound COc1cc2c(c(OC)c1OC)-c1ccc(OC)c(=O)cc1[C@@H](NC(C)=O)CC2 [Colchicine] is ____.
stdout: 2.72

* * *

assay: Clinical drug-drug interaction study of colchicine and verapamil (Example 8); details: both, human, in vivo, 0.6 mg, AUC∞, geometric mean, colchicine in plasma; single 0.6 mg dose alone or with steady-state verapamil HCl ER 240 mg once daily
quantity-name: AUC0-inf (ng·h/mL)
Your answer should be a plain number; it is taken to be in ng·h/mL.

stdin: Give the measured AUC0-inf of `COc1cc2c(c(OC)c1OC)-c1ccc(OC)c(=O)cc1[C@@H](NC(C)=O)CC2` .
stdout: 14.4

* * *

assay: clinical; details: both, human, plasma, 0.6 mg, colchicine in plasma, single 0.6 mg dose alone (Day 1) or with steady-state diltiazem (Day 21), N=20, arithmetic mean
quantity-name: AUC0-t (ng·h/mL)
# number only, unit ng·h/mL dropped from output

stdin: Query: AUC0-t; subject: `COc1cc2c(c(OC)c1OC)-c1ccc(OC)c(=O)cc1[C@@H](NC(C)=O)CC2`
stdout: 10

* * *

assay: clinical; details: both, human, plasma, oral, 0.6 mg, geometric mean, colchicine in plasma, single 0.6 mg dose alone or with steady-state ketoconazole 200 mg b.i.d., ln-transformed data
quantity-name: Cmax (ng/mL)
# value in ng/mL; strip the unit string

stdin: GET /values?readout=Cmax&item= COc1cc2c(c(OC)c1OC)-c1ccc(OC)c(=O)cc1[C@@H](NC(C)=O)CC2 [Colchicine]
stdout: 2.6
